Tested on: morningglory (Ipomoea coccinea)
TEST_PROTOCOL: Test C pre/postemergence
Type: in vivo
RECORDED_CONDITIONS: Postemergence, 31 g ai/ha
Plant response rating (scale of 0 to 100), Morningglory overview
PARAMETER_MEASURED: Plant response rating (scale of 0 to 100), Morningglory

CHEMICAL_STRUCTURE: CCCCOC(=O)c1nc(C2CC2)nc(N)c1Cl
READOUT_NUMBER: 95

CHEMICAL_STRUCTURE: Nc1nc(-c2ccc(Cl)cc2)nc(C(=O)O)c1Br
READOUT_NUMBER: 60

CHEMICAL_STRUCTURE: CCCCOC(=O)c1nc(C2CC2)nc(N)c1Br
READOUT_NUMBER: 85

CHEMICAL_STRUCTURE: CC(C)COC(=O)c1nc(C2CC2)nc(N)c1Br
READOUT_NUMBER: 95

----------
The entries below are paired with their reported pest or weed control at 125 g/ha.
Tested on: pigweed (Amaranthus retroflexus)
TEST_PROTOCOL: Test B pre/postemergence
Type: in vivo
RECORDED_CONDITIONS: Amaranthus retroflexus, pre-emergence, Preemergence, 125 g ai/ha; scale 0 to 100 (0 no effect, 100 complete control); read-out: Plant response rating, Pigweed

CHEMICAL_STRUCTURE: COC(=O)c1nc(C2CC2)nc(N)c1Br
pest or weed control at 125 g/ha, %: 90
--
CHEMICAL_STRUCTURE: CCOC(=O)c1nc(C(C)(C)C)nc(N)c1Br
pest or weed control at 125 g/ha, %: 0
--
CHEMICAL_STRUCTURE: Nc1nc(C2CC2)nc(C=O)c1F
pest or weed control at 125 g/ha, %: 80
--
CHEMICAL_STRUCTURE: CCOC(=O)c1nc(C2CC2)nc(NN)c1Br
pest or weed control at 125 g/ha, %: 50
--
CHEMICAL_STRUCTURE: COC(=O)c1nc(C2CC2)nc(NO)c1Br
pest or weed control at 125 g/ha, %: 80
--
CHEMICAL_STRUCTURE: Nc1nc(C2CC2)nc(C(=O)OCc2ccccc2)c1Cl
pest or weed control at 125 g/ha, %: 100
--
CHEMICAL_STRUCTURE: CNc1nc(C2CC2)nc(C(=O)OC)c1Cl
pest or weed control at 125 g/ha, %: 100

----------
System: velvetleaf (Abutilon theophrasti)
TEST_PROTOCOL: Test A pre/postemergence
Assay type: in vivo
RECORDED_CONDITIONS: Postemergence, 500 g ai/ha; 0 to 100 scale (0 no effect, 100 complete control)
Criterion: Plant response rating, Velvetleaf strictly less than 80. Met: class 1. Not met: class 0.

COMPOUND: CCOC(=O)c1nc(-c2ccc(F)cc2)nc(N)c1Br
CATEGORY_LABEL: class 1
--
COMPOUND: CCOC(=O)c1nc(-c2ccc(C(F)(F)F)cc2)nc(N)c1Br
CATEGORY_LABEL: class 1
--
COMPOUND: Nc1nc(C2CC2)nc(C(=O)OCC2CO2)c1Cl (centres unmarked)
CATEGORY_LABEL: class 0
--
COMPOUND: CCOC(=O)COc1nc(-c2ccc(Cl)cc2)nc(N)c1Cl
CATEGORY_LABEL: class 1
--
COMPOUND: CNc1nc(-c2ccc(Cl)cc2)nc(C(=O)OC)c1Cl
CATEGORY_LABEL: class 0

Reference source for all entries: patent US8802597B2
